Recorded values, source PubChem BioAssay AID2060500.

Tested on: 596521-263-R-J1-PDC complex spheroids, viability % of control
EXPERIMENTAL_PROTOCOL: Anticancer human tumor 596521-263-R-J1-PDC patient-derived soft tissue sarcoma cell line growth inhibition [GQUAD]
CONDITION_CONTEXT: compound alone; run of 04/16/2024
PROPERTY_MEASURED: IC50

{"columns": ["SMILES_STRING", "EXPERIMENTAL_SYSTEM", "DATA_VALUE"],
 "data": [
  ["Cc1[nH]c2ccc(F)cc2c1-c1nc2c3cccnc3c3ncccc3c2[nH]1", "596521-263-R-J1-PDC complex spheroids, viability % of control", "> 10 µM"]
]}

---

Known viability, T/C of a selection of molecules
Tested on: 596521-263-R-J1-PDC complex spheroids, viability % of control
EXPERIMENTAL_PROTOCOL: Anticancer human tumor 596521-263-R-J1-PDC cell line growth inhibition [GQUAD];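 note: spheroids exposed to drugs for 7 days before viability reading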;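 for viability, T/C: 100% = DMSO vehicle control viability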
CONDITION_CONTEXT: second compound 10 µM; first compound 10 µM; stronger effect = lower value
PROPERTY_MEASURED: viability, T/C

{"columns": ["MOLECULE", "DATA_VALUE"],
 "data": [
  ["CC(C)(O)C1CCC(Nc2ccc3ncc(-c4cccc(C(F)(F)F)c4)n3n2)CC1 (stereo not drawn) + Cc1[nH]c2ccc(F)cc2c1-c1nc2c3cccnc3c3ncccc3c2[nH]1", "68.6%"],
  ["Nc1ccn(C2OC(CO)C(O)C2(F)F)c(=O)n1 (stereo not drawn) + CN(C)c1ccc(Nc2c3ccc(NC(=O)CCN4CCCC4)cc3nc3cc(NC(=O)CCN4CCCC4)ccc23)cc1", "38.2%"],
  ["C#Cc1c(F)ccc2cc(O)cc(-c3ncc4c(N5CC6CCC(C5)N6)nc(OCC56CCCN5CC(F)C6)nc4c3F)c12 (stereo not drawn) + Cc1cnc(CNC(=O)c2c(=O)c3ccc(N4CCCN(C)CC4)nc3n3c2sc2ccccc23)cn1", "0.57%"]
]}

---

System: 596521-263-R-J1-PDC complex spheroids, viability % of control
EXPERIMENTAL_PROTOCOL: Anticancer human tumor 596521-263-R-J1-PDC cell line growth inhibition [GQUAD];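 note: spheroids exposed to drugs for 7 days before viability reading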
CONDITION_CONTEXT: curve of first compound; second compound 0.1 µM
PROPERTY_MEASURED: IC50 (µM)

{"columns": ["COMPOUND", "UNIT_SPEC", "BOUND_SIGN", "DATA_VALUE"],
 "data": [
  ["COc1ccc([C@@H](O)c2cc(-c3ncnc4cc(N5CCOCC5)ccc34)c(F)cc2Cl)nn1 + Cc1[nH]c2ccc(F)cc2c1-c1nc2c3cccnc3c3ncccc3c2[nH]1", "µM", ">", 10],
  ["CCCS(=O)(=O)Nc1ccc(F)c(C(=O)c2c[nH]c3ncc(-c4ccc(Cl)cc4)cc23)c1F + CN(C)c1ccc(Nc2c3ccc(NC(=O)CCN4CCCC4)cc3nc3cc(NC(=O)CCN4CCCC4)ccc23)cc1", "µM", "=", 5.51],
  ["CC1COCCN1c1cc(C2(O)CC3CCC(C2)O3)c2cnn(-c3ccn[nH]3)c2n1 (stereo not given) + Cc1[nH]c2ccc(F)cc2c1-c1nc2c3cccnc3c3ncccc3c2[nH]1", "µM", "=", 0.267],
  ["COc1cc(C2c3cc4c(cc3C(OC3OC5COC(C)OC5C(O)C3O)C3COC(=O)C23)OCO4)cc(OC)c1O (stereo not given) + CN(C)c1ccc(Nc2c3ccc(NC(=O)CCN4CCCC4)cc3nc3cc(NC(=O)CCN4CCCC4)ccc23)cc1", "µM", "=", 8.19],
  ["COc1cc(C2c3cc4c(cc3C(OC3OC5COC(C)OC5C(O)C3O)C3COC(=O)C23)OCO4)cc(OC)c1O (stereo not given) + Cc1cnc(CNC(=O)c2c(=O)c3ccc(N4CCCN(C)CC4)nc3n3c2sc2ccccc23)cn1", "µM", ">", 10],
  ["C=CC(=O)N1CCN(c2nc(=O)n(-c3c(C)ccnc3C(C)C)c3nc(-c4c(O)cccc4F)c(F)cc23)C(C)C1 (stereo not given) + Cc1[nH]c2ccc(F)cc2c1-c1nc2c3cccnc3c3ncccc3c2[nH]1", "µM", ">", 10],
  ["CC1COCCN1c1cc(C2(O)CC3CCC(C2)O3)c2cnn(-c3ccn[nH]3)c2n1 (stereo not given) + Cc1cnc(CNC(=O)c2c(=O)c3ccc(N4CCCN(C)CC4)nc3n3c2sc2ccccc23)cn1", "µM", "=", 0.115],
  ["CC1COCCN1c1cc(C2(O)CC3CCC(C2)O3)c2cnn(-c3ccn[nH]3)c2n1 (stereo not given) + CN(C)c1ccc(Nc2c3ccc(NC(=O)CCN4CCCC4)cc3nc3cc(NC(=O)CCN4CCCC4)ccc23)cc1", "µM", "=", 0.221],
  ["C=CCn1c(=O)c2cnc(Nc3ccc(N4CCN(C)CC4)cc3)nc2n1-c1cccc(C(C)(C)O)n1 + Cc1cnc(CNC(=O)c2c(=O)c3ccc(N4CCCN(C)CC4)nc3n3c2sc2ccccc23)cn1", "µM", "=", 0.481],
  ["CC1COCCN1c1cc(C2(S(C)(=N)=O)CC2)nc(-c2ccnc3[nH]ccc23)n1 (stereo not given) + CN(C)c1ccc(Nc2c3ccc(NC(=O)CCN4CCCC4)cc3nc3cc(NC(=O)CCN4CCCC4)ccc23)cc1", "µM", "=", 9.59]
]}

---

Known viability, T/C of a selection of compounds
Test system: 596521-263-R-J1-PDC complex spheroids, viability % of control
EXPERIMENTAL_PROTOCOL: Anticancer human tumor 596521-263-R-J1-PDC cell line growth inhibition [GQUAD];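 note: spheroids exposed to drugs for 7 days before viability reading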;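 for viability, T/C: 100% = DMSO vehicle control viability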
CONDITION_CONTEXT: second compound 10 µM; first compound 10 µM; stronger effect = lower value
PROPERTY_MEASURED: viability, T/C (%)

{"columns": ["COMPOUND", "DATA_VALUE"],
 "data": [
  ["CC1COCCN1c1cc(-c2ccnn2C)c2ccnc(-c3ccn[nH]3)c2n1 (stereo not drawn) + Cc1[nH]c2ccc(F)cc2c1-c1nc2c3cccnc3c3ncccc3c2[nH]1", 25.4],
  ["COc1cccc2c1C(=O)c1c(O)c3c(c(O)c1C2=O)CC(O)(C(=O)CO)CC3OC1CC(N)C(O)C(C)O1 (stereo not drawn) + CN(C)c1ccc(Nc2c3ccc(NC(=O)CCN4CCCC4)cc3nc3cc(NC(=O)CCN4CCCC4)ccc23)cc1", 5.21],
  ["CC(=O)O[C@H]1C(=O)[C@@]2(C)[C@H]([C@H](OC(=O)c3ccccc3)[C@]3(O)C[C@H](OC(=O)[C@H](O)[C@@H](NC(=O)c4ccccc4)c4ccccc4)C(C)=C1C3(C)C)[C@]1(OC(C)=O)CO[C@@H]1C[C@@H]2O + CN(C)c1ccc(Nc2c3ccc(NC(=O)CCN4CCCC4)cc3nc3cc(NC(=O)CCN4CCCC4)ccc23)cc1", 24.9]
]}

---

Known viability, T/C of a selection of molecules
Tested on: 596521-263-R-J1-PDC complex spheroids, viability % of control
EXPERIMENTAL_PROTOCOL: Anticancer human tumor 596521-263-R-J1-PDC cell line growth inhibition [GQUAD];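 note: spheroids exposed to drugs for 7 days before viability reading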;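 for viability, T/C: 100% = DMSO vehicle control viability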
CONDITION_CONTEXT: second compound 1 µM; first compound 1 µM; stronger effect = lower value

{"columns": ["MOLECULE", "UNIT_SPEC", "viability, T/C"],
 "data": [
  ["CCCS(=O)(=O)Nc1ccc(F)c(C(=O)c2c[nH]c3ncc(-c4ccc(Cl)cc4)cc23)c1F + Cc1[nH]c2ccc(F)cc2c1-c1nc2c3cccnc3c3ncccc3c2[nH]1", "%", 38.4],
  ["Nc1ccn(C2OC(CO)C(O)C2(F)F)c(=O)n1 (stereo not drawn) + Cc1[nH]c2ccc(F)cc2c1-c1nc2c3cccnc3c3ncccc3c2[nH]1", "%", 39.3],
  ["CC(C)(O)C1CCC(Nc2ccc3ncc(-c4cccc(C(F)(F)F)c4)n3n2)CC1 (stereo not drawn) + CN(C)c1ccc(Nc2c3ccc(NC(=O)CCN4CCCC4)cc3nc3cc(NC(=O)CCN4CCCC4)ccc23)cc1", "%", 75.5]
]}

---

Known viability, T/C of a selection of compounds
Test system: 596521-263-R-J1-PDC complex spheroids, viability % of control
EXPERIMENTAL_PROTOCOL: Anticancer human tumor 596521-263-R-J1-PDC cell line growth inhibition [GQUAD];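 note: spheroids exposed to drugs for 7 days before viability reading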;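 for viability, T/C: 100% = DMSO vehicle control viability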
CONDITION_CONTEXT: second compound 0.1 µM; first compound 1 µM; stronger effect = lower value
PROPERTY_MEASURED: viability, T/C (%)

{"columns": ["COMPOUND", "EXPERIMENTAL_SYSTEM", "DATA_VALUE"],
 "data": [
  ["Nc1ccn(C2OC(CO)C(O)C2(F)F)c(=O)n1 (stereo not drawn) + CN(C)c1ccc(Nc2c3ccc(NC(=O)CCN4CCCC4)cc3nc3cc(NC(=O)CCN4CCCC4)ccc23)cc1", "596521-263-R-J1-PDC complex spheroids, viability % of control", 39.1],
  ["C=CC(=O)N1CCN(c2nc(=O)n(-c3c(C)ccnc3C(C)C)c3nc(-c4c(O)cccc4F)c(F)cc23)C(C)C1 (stereo not drawn) + CN(C)c1ccc(Nc2c3ccc(NC(=O)CCN4CCCC4)cc3nc3cc(NC(=O)CCN4CCCC4)ccc23)cc1", "596521-263-R-J1-PDC complex spheroids, viability % of control", 105],
  ["O=C(NO)c1cnc(N2CCN(S(=O)(=O)c3ccc4ccccc4c3)CC2)nc1 + Cc1cnc(CNC(=O)c2c(=O)c3ccc(N4CCCN(C)CC4)nc3n3c2sc2ccccc23)cn1", "596521-263-R-J1-PDC complex spheroids, viability % of control", 0.78]
]}
